Assign fraction ligated to each entry below.
B1: minF1; a variant is named by its letters at N, in order (parent)
chain: GAGACCGCAACTGAAAAGTTGTTNNNNAANNNNGGNTNNATTTCTGCACGTAGAAGCAAAAGGC

Variants of: B1
assay_info: fraction ligated after 30 min (ligated reads / total reads); higher = more ligase activity
measurement_conditions: with F1*subA RNA substrate (template-directed ligation), 42 °C
Reply with just the number.

(Q) Using the record for TCAGATGTGTA T23A , state its measured fraction ligated.
(A) 0.00304

(Q) Please look at this variant and report its fraction ligated: ATCATGGAGTT G34T T37G
(A) 0.00293

(Q) Return fraction ligated for the following variant: `TCAGAGGGTGA`
(A) 0.00299

(Q) Return fraction ligated (reported value) for this variant: TCAAGGATTGA T23A
(A) 0.00297

(Q) Fill in reported fraction ligated for this entry: TCGAGGTGTGA A29T
(A) 0.00308

(Q) Provide measured fraction ligated value, entry: TCAGATGGGTG T23A
(A) 0.00293
